Test system: K-562 leukemia
Assay: NCI tumour cell line growth inhibition, 48 h
Where a SMILES comes first, the peptide text is derived from it. [ ]: non-standard residue; d: D form. The star is where a group is joined. ξ: configuration not given here. NMeY = CN[C@@H](Cc1ccc(O)cc1)C(=O)O; Cbz = O=C(OCc1ccccc1)*; ξA = CC(N)C(=O)O
# TGI per entry

Observe how each entry below is paired with its result.
molecule=COc1ccc(-c2nc3sccn3c2-c2ccnc(NCCNS(=O)(=O)c3ccc(C(F)(F)F)cc3)n2)cc1 result="> 100 µM"
molecule=CCOC(=O)C(C(=O)OCC)=C1C=C(c2ccccc2)c2ccccc21 result="> 100 µM"
molecule=CCOC(=O)C(C(=O)OCC)c1cc(-c2cc3ccccc3o2)oc(=O)c1C#N result="> 100 µM"
molecule="N#CC1=C(N)N=C(N2CCOCC2)C(C#N)C12Nc1ccccc1S2 (centres undefined)" result="> 100 µM"
molecule=Cc1cn(CC(=S)NCCc2c[nH]c3ccccc23)c(=O)[nH]c1=O result="> 100 µM"

Kindly review the next molecule as well.
# TGI of COc1ccc(C[C@@H](C(=O)N[C@@H](C)C(N)=O)N(C)C(=O)[C@@H]2CCCN2C(=O)[C@H](CC(C)C)NC(=O)C(C)NC(=O)OCc2ccccc2)cc1 (some centres undefined) (Cbz-[ξA]LP[NMeY](Me)A-NH2) = > 100 µM

* * *

Tested on: SNB-75 CNS
Assay: NCI tumour cell line growth inhibition, 48 h
property: TGI

Observe how each entry below is paired with its result.
compound="CC(=O)OC1C(O)C(C)OC(OC2C(OC(=O)C3CCC4C(C3)OC3(CC(OC(=O)/C=C/c5ccccc5)C(C)CO3)C43CO3)OC(C)C(O)C2OC(C)=O)C1O (stereo unspecified)" result="0.0317 µM"
compound="Nc1c(C(=O)Nc2cccc(Cl)c2)sc2nc3c(cc12)C(O)CCC3 (stereo unspecified)" result="21.6 µM"
compound=COc1cc(/C=C2\CCC/C(=C\c3cc(CN4CCCC4)c(O)c(OC)c3)C2=O)cc(CN2CCCC2)c1O result="47.9 µM"
compound=O=C1c2ccccc2C(=O)c2c1oc1cc(O)c(Cl)cc21 result="10.4 µM"
compound=CCCCCCCCCCCCCCCC(=O)NS(=O)(=O)OC[C@H]1O[C@@H](n2cnc3c(N)ncnc32)[C@H](O)[C@@H]1O result="1.29 µM"
compound=COC(C)=NCCC1=CCCCC1 result="> 100 µM"
compound=CCN1CCN(Cc2ccc(Nc3ncc(F)c(-c4cc(F)c5nc(C)n(C(C)C)c5c4)n3)nc2)CC1 result="6.68 µM"
compound=O=[N+]([O-])C(C(Cl)=C(Cl)Cl)=C(N1CCCCC1)N1CCCCC1 result="> 100 µM"
compound=COc1cccc2nc(Nc3cccc(NC(=O)c4ccc(N5CCN(C)CC5)c(C(F)(F)F)c4)c3)ccc12 result="1.68 µM"
compound=Cn1c2ncccc2n2c(=O)cc(O)cc12 result="> 100 µM"

# TGI of "CC1=CC2(C)C=C[C@@H]1C(=O)[C@@]1(C)CC[C@@](O)(C(C)C)[C@H]1CC2" = 58.3 µM

# TGI of "COc1ccc2nc3c4c(nccc4c2c1)-c1ncccc1C3=O" = 0.378 µM

# TGI of Cc1cn(C2CC(O)C(Cn3nncc3Cn3cnc4c(N)ncnc43)O2)c(=O)[nH]c1=O (stereo unspecified) = > 100 µM

# TGI of "CCOC(=O)/C(=C\c1c[nH]c2ccccc12)P(=O)(OCC)OCC" = 75.6 µM

# TGI of "O=P1(Oc2ccc(Cl)cc2Cl)Oc2cc3ccccc3cc2O1" = > 100 µM

# TGI of CC(CC(=O)N1C2CC3CCC2(CS1(=O)=O)C3(C)C)[Si](C)(C)C (stereo unspecified) = > 100 µM

# TGI of COc1ccc2nc3ccc(OC)cc3c(S(=O)Cc3ccccc3)c2c1 (stereo unspecified) = 28.8 µM

* * *

Test system: CAKI-1 renal
Test: NCI tumour cell line growth inhibition, 48 h
property: TGI

molecule="CC1=C2CC[C@@]3(C)C(=CCC3O)C2(C)CCC1=O (stereo partly specified)" test_target="CAKI-1 renal" property=TGI result="> 100 µM"
molecule=N#CCCC1(CCC#N)S(=O)(=O)OCCOS1(=O)=O test_target="CAKI-1 renal" property=TGI result="> 100 µM"
molecule=O=C(O)c1ccc(CSc2nc3ccccc3[nH]2)cc1 test_target="CAKI-1 renal" property=TGI result="> 100 µM"
molecule=Cc1n[nH]c(=O)n1/N=C/c1ccco1 test_target="CAKI-1 renal" property=TGI result="> 100 µM"

Tested system CAKI-1 renal; TGI recorded for "CN1C(=O)C(=Cc2ccc(Br)cc2)C(=O)N(C)C1=O" was > 100 µM

Tested system CAKI-1 renal; TGI recorded for "CCCCCc1cc(/C=C2/N=C(c3ccc[nH]3)C=C2OC)[nH]c1C" was 0.0168 µM

* * *

Tested on: CAKI-1 renal
Experiment: NCI tumour cell line growth inhibition, 48 h
property: GI50

Observe how each entry below is paired with its result.
compound="CCCCCCCCCCCCC(O)C1CCC(C(O)CCCCC(O)CCCCCC2CC(CC(C)=O)C(=O)O2)O1 (centres undefined)" property=GI50 result="2.29 µM"
compound=CSC1=CC(=O)c2ccccc2C1=O property=GI50 result="1.59 µM"
compound=COc1cc2c(Nc3ccc(-c4ccc(N)cc4)cc3)ncnc2c(OC)c1OC property=GI50 result="0.655 µM"
compound=Cc1cc(S(=O)(=O)Nc2nc3ccccc3c(=O)n2Cc2ccco2)c(S)cc1Cl property=GI50 result="44.1 µM"
compound="COC(=O)C1C(C(=O)O)C2(c3ccccc3)C(=O)C1(c1ccccc1)C(c1ccc(OC)cc1)=C2c1ccc(OC)cc1 (centres undefined)" property=GI50 result="20.9 µM"
compound=CC(C)c1cnc(-c2cc(Cl)ccc2F)cc1Nc1ccncc1C(=O)NC(CO)CO property=GI50 result="6.28 µM"
compound="Cc1ccc(C2=NN(c3ccc(S(=O)(=O)NC(=O)NCc4ccccc4)cc3)C(c3ccc(N(C)C)cc3)C2)c(C)c1 (centres undefined)" property=GI50 result="3.45 µM"
compound=Cc1cc(O)ccc1C1(c2ccc(O)cc2C)OC(=O)c2ccccc21 property=GI50 result="16 µM"

Kindly review the next compound as well.
# GI50 of "Cc1nc2ccc(-n3ncc(C(=O)c4cc5ccccc5[nH]4)c3N)cc2[nH]1" = 7.16 µM

* * *

System: NCI-H226 lung
Assay: NCI tumour cell line growth inhibition, 48 h
# TGI per entry

Observe how each entry below is paired with its result.
compound="Nc1nc2ccc(CNc3ccc(C(=O)NC(CC(=O)O)C(=O)O)cc3)cc2c(=O)[nH]1 (stereo unspecified)" result="> 100 µM"
compound=CC(C)[C@@]12C[C@@H](OC(=O)COC(=O)c3ccccc3)[C@@](C)(O1)[C@@H]1CC[C@@H](C)[C@H]1[C@@H]2OC(=O)/C=C/c1ccccc1 result="> 100 µM"
compound=CN1CCCS/C1=C1/SC(=S)N(c2ccccc2)C1=O result="> 100 µM"
compound=COc1cccc2nc(Nc3cccc(NC(=O)c4ccc(N5CCN(C)CC5)c(C(F)(F)F)c4)c3)ccc12 result="8.61 µM"
compound=CN(C)CCC(=O)[C@@]1(O)CC[C@H]2[C@@H]3CC=C4C[C@@H](O)CC[C@]4(C)[C@H]3CC[C@@]21C result="> 100 µM"

# TGI of "COC1(OC)CCN(Cc2ccccc2)C1=O" = 38.9 µM

# TGI of CC(=O)OCc1nnn2c1C(OC(C)=O)CC2 (stereo unspecified) = > 100 µM

# TGI of "CC/C(Cl)=N\OC(=O)Nc1ccc(F)c(Cl)c1" = 51.3 µM

# TGI of "c1ccc2c(c1)nc1ccccn12" = > 100 µM

# TGI of "Cc1n[nH]c(=O)n1/N=C/c1ccco1" = > 100 µM

* * *

System: PC-3 prostate
Experiment: NCI tumour cell line growth inhibition, 48 h
property: TGI (µM)
The response must be a number in µM with no trailing unit.

Observe how each entry below is paired with its result.
compound=CSC1=CC(=O)c2ccccc2C1=O units_symbol=µM measured_number=12.5
compound=CCOC(=O)c1c(C)n([O-])c2cc(F)c(F)cc2[n+]1=O units_symbol=µM measured_number=3.59
compound=COc1ccc2[nH]c(C(=O)OCc3ccc4c(Br)cc(Br)c(O)c4n3)cc2c1 units_symbol=µM measured_number=2.27
compound="CCCCCCCCCCCCC(O)C1CCC(C(O)CCCCC(O)CCCCCC2CC(CC(C)=O)C(=O)O2)O1 (stereo unspecified)" units_symbol=µM measured_number=4.24
compound=CC(C)c1cnc(-c2cc(Cl)ccc2F)cc1Nc1ccncc1C(=O)NC(CO)CO units_symbol=µM measured_number=32.6
compound="COc1ccc2nc3ccc(OC)cc3c(S(=O)Cc3ccccc3)c2c1 (stereo unspecified)" units_symbol=µM measured_number=27.2

# TGI of "Cc1[nH]c(C(=O)Nc2cccc(OC3CCNCC3)c2)c(Cl)c1Cl" = 3.36

# TGI of "O=S(=O)(NCCNc1nccc(-c2c(-c3ccc(F)cc3)nc3sccn23)n1)c1ccc(O)cc1" = 37.6

# TGI of "Cc1ccc2ncnc(N(C)C3CCCCC3)c2c1" = 87.4

# TGI of "COc1ccc(C[C@H]2COC(=O)[C@@H]2Cc2ccc(Br)cc2)cc1OC" = 52.1

# TGI of "CCN1CCN(Cc2ccc(NC(=O)Nc3nc(-c4cc(OC)c(OC)c(OC)c4)cs3)cc2C(F)(F)F)CC1" = 6.99

# TGI of "COc1cc(/C=C2\CCC/C(=C\c3cc(CN4CCCC4)c(O)c(OC)c3)C2=O)cc(CN2CCCC2)c1O" = 16.6
